Test system: PPARa:RXRa (NR concentration 270 nM, RXRa partner concentration 90 nM)
testMethodNotes: PBM binding z-score (relative to random genomic background probes); higher = stronger binding; sequences stand for … in GC…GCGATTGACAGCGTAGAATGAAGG
Consider the following sequences and their measured PBM binding z-score readings.
valueType: PBM binding z-score

# orderedResidues, dataValue
records = [
    ("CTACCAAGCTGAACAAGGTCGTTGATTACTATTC", 0.706),
    ("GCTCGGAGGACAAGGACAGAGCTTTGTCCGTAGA", -0.604),
    ("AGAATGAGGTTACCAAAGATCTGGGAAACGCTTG", 3.4),
    ("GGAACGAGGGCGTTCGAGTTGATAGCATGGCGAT", -0.0431),
    ("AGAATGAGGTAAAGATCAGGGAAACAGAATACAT", 0.991),
    ("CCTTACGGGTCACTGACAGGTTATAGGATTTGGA", 5.09),
]
